Values compiled from patent US11015216B2.

# Lookup of reported Half-life (signal half-life, ratio in comparison to native coelenterazine) keyed by entry
# test.system: NanoLuc® Luciferase (Oplophorus gracilirostris, UniProt Q9GV45, A31E/A60N/A81I/F95D/I117V/K70R/L54V/L99Q/M102K/N193R/P142E/Q151K/Q38R/Q45L/V71I/Y165I)
# Sequence (Q9GV45 other isoform, or with tags, fused parts or gaps with the stated changes): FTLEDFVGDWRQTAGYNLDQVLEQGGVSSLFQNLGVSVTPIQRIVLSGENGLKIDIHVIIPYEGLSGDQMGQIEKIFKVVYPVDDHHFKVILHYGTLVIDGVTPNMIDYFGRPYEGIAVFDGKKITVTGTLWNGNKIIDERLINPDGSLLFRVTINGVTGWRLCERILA
# Format: biochemical
# protocol.conditions: ratio to coelenterazine (=1); read at five minute intervals
# Protocol: Luminescence Assay Procedure: Each compound to be screened was dissolved in DMSO (5 mM) and then further diluted to 100 uM in NANO-GLOR Luciferase Assay Buffer. Each diluted substrate was then combined in equal volumes with purified NanoLuc® Luciferase diluted into CO2 independent media+10% FBS. Initial light output for each substrate was measured in a GloMax®-Multi+ luminometer three minutes after substrate addition and then at five minute intervals as a means to determine signal half-life. […]
reported.endpoint: Half-life (signal half-life, ratio in comparison to native coelenterazine)

smiles.str: O=C(O)c1ccc(Cc2nc3c(Cc4ccccc4)[nH]c(-c4ccccc4)cn-3c2=O)cc1
value: 1.02

smiles.str: COc1ncc(Cc2nc3c(Cc4ccccc4)[nH]c(-c4ccccc4)cn-3c2=O)cn1
value: 0.88

smiles.str: O=c1c(Cc2ccc(F)nc2F)nc2c(Cc3ccccc3)[nH]c(-c3ccccc3)cn1-2
value: 0.62

smiles.str: COc1nc(Cl)ccc1Cc1nc2c(Cc3ccccc3)[nH]c(-c3ccccc3)cn-2c1=O
value: 1.09

smiles.str: O=c1c(Cc2cccnc2)nc2c(Cc3ccccc3)[nH]c(-c3ccccc3)cn1-2
value: 3.03

smiles.str: O=c1c(Cc2cn(-c3ccccc3)nc2-c2ccccc2)nc2c(Cc3ccccc3)[nH]c(-c3ccccc3)cn1-2
value: 2.15

smiles.str: O=c1c(Cc2cn3ccsc3n2)nc2c(Cc3ccccc3)[nH]c(-c3ccccc3)cn1-2
value: 1.62

smiles.str: COc1cncc(Cc2nc3c(Cc4ccccc4)[nH]c(-c4ccccc4)cn-3c2=O)c1
value: 0.88

###

# test.system: NanoLuc® Luciferase (Oplophorus gracilirostris, UniProt Q9GV45, A31E/A60N/A81I/F95D/I117V/K70R/L54V/L99Q/M102K/N193R/P142E/Q151K/Q38R/Q45L/V71I/Y165I)
# Format: biochemical
# protocol.conditions: ratio to coelenterazine (=1); read at five minute intervals
reported.endpoint: Half-life (signal half-life, ratio in comparison to native coelenterazine)

smiles.str: Cn1cc(Cc2nc3c(Cc4ccccc4)[nH]c(-c4ccccc4)cn-3c2=O)c(=O)n(C)c1=O
value: 0.005
--
smiles.str: COc1ccc(Cc2nc3c(Cc4ccccc4)[nH]c(-c4ccccc4)cn-3c2=O)c(OC)n1
value: 0.93
--
smiles.str: Cn1nnc2cc(Cc3nc4c(Cc5ccccc5)[nH]c(-c5ccccc5)cn-4c3=O)ccc21
value: 1.04
--
smiles.str: O=c1c(Cc2cccnc2F)nc2c(Cc3ccccc3)[nH]c(-c3ccccc3)cn1-2
value: 1.14

###

# System: luciferase
# run.description: Additional luciferase substrate assay, compared to known analogue C-1 (Table 3)
# Assay type: biochemical
# protocol.conditions: relative to C-1 (=1)
Threshold check on RLU (@100 uM): strictly below 0.005 is y; on or above 0.005 is n.

compound: Cc1ccc(Cc2nc3c(Cc4ccccc4)[nH]c(-c4ccccc4)cn-3c2=O)cn1 [Compound 76]
category: n
--
compound: O=c1c(Cc2cccnc2F)nc2c(Cc3ccccc3)[nH]c(-c3ccccc3)cn1-2 [Compound 67]
category: n
--
compound: CC(C)(C)OC(=O)Nc1ccc(Cc2nc3c(Cc4ccccc4)[nH]c(-c4ccccc4)cn-3c2=O)cc1 [Compound 30]
category: y
--
compound: CN(C)Oc1cccc(Cc2nc3c(Cc4ccccc4)[nH]c(-c4ccccc4)cn-3c2=O)c1 [Compound 60]
category: y
--
compound: Cn1nc(C(F)(F)F)c(Cc2nc3c(Cc4ccccc4)[nH]c(-c4ccccc4)cn-3c2=O)c1Cl [Compound 45]
category: y
--
compound: O=c1c(Cc2ccco2)nc2c(Cc3ccccc3)[nH]c(-c3ccccc3)cn1-2 [Compound C-1, reference compound]
category: n
--
compound: O=c1c(Cc2ccc(-c3ccccn3)s2)nc2c(Cc3ccccc3)[nH]c(-c3ccccc3)cn1-2 [Compound 34]
category: n
--
compound: O=C(O)c1ccc(Cc2nc3c(Cc4ccccc4)[nH]c(-c4ccccc4)cn-3c2=O)cc1 [Compound 10]
category: y
--
compound: O=c1c(Cc2ccc(CN3CCOCC3)o2)nc2c(Cc3ccccc3)[nH]c(-c3ccccc3)cn1-2 [Compound 81]
category: n
--
compound: CSc1cccc(Cc2nc3c(Cc4ccccc4)[nH]c(-c4ccccc4)cn-3c2=O)c1 [Compound 58]
category: n
--
compound: Cn1cc(Cc2nc3c(Cc4ccccc4)[nH]c(-c4ccccc4)cn-3c2=O)c(=O)n(C)c1=O [Compound 16]
category: y
--
compound: O=c1c(Cc2cc(C(F)(F)F)cc(C(F)(F)F)c2)nc2c(Cc3ccccc3)[nH]c(-c3ccccc3)cn1-2 [Compound 44]
category: n
--
compound: Cn1nnc2cc(Cc3nc4c(Cc5ccccc5)[nH]c(-c5ccccc5)cn-4c3=O)ccc21 [Compound 11]
category: n
--
compound: O=c1c(Cc2ccc(F)cc2F)nc2c(Cc3ccccc3)[nH]c(-c3ccccc3)cn1-2 [Compound 3]
category: n
--
compound: Cn1nc(-c2cccs2)cc1Cc1nc2c(Cc3ccccc3)[nH]c(-c3ccccc3)cn-2c1=O [Compound 12]
category: y
--
compound: COc1ccc(Cc2nc3c(Cc4ccccc4)[nH]c(-c4ccccc4)cn-3c2=O)cc1OC [Compound 57]
category: n
--
compound: O=c1c(Cc2ccc(C(F)(F)F)o2)nc2c(Cc3ccccc3)[nH]c(-c3ccccc3)cn1-2 [Compound 41]
category: n
--
compound: O=c1c(Cc2ccc(C3CCCCC3)s2)nc2c(Cc3ccccc3)[nH]c(-c3ccccc3)cn1-2 [Compound 37]
category: n
--
compound: O=c1c(Cc2ccncc2)nc2c(Cc3ccccc3)[nH]c(-c3ccccc3)cn1-2 [Compound 36]
category: y
--
compound: CCOP(=O)(OCC)c1nc2c(Cc3ccccc3)[nH]c(-c3ccccc3)cn-2c1=O [Compound 1]
category: y
--
compound: O=c1c(Cc2cnccn2)nc2c(Cc3ccccc3)[nH]c(-c3ccccc3)cn1-2 [Compound 84]
category: y
--
compound: O=c1c(C=Cc2ccccc2)nc2c(Cc3ccccc3)[nH]c(-c3ccccc3)cn1-2 [Compound 86]
category: y
--
compound: COc1cncc(Cc2nc3c(Cc4ccccc4)[nH]c(-c4ccccc4)cn-3c2=O)c1 [Compound 72]
category: n
--
compound: COCCOc1cccc(Cc2nc3c(Cc4ccccc4)[nH]c(-c4ccccc4)cn-3c2=O)c1 [Compound 62]
category: n
--
compound: CC(C)(C)OC(=O)Nc1cccc(Cc2nc3c(Cc4ccccc4)[nH]c(-c4ccccc4)cn-3c2=O)c1 [Compound 23]
category: y
--
compound: COc1ccc(Cc2nc3c(Cc4ccccc4)[nH]c(-c4ccccc4)cn-3c2=O)cc1F [Compound 21]
category: n
--
compound: O=c1c(Cc2ccc(-c3cccs3)s2)nc2c(Cc3ccccc3)[nH]c(-c3ccccc3)cn1-2 [Compound 38]
category: n
--
compound: COCc1ccc(Cc2nc3c(Cc4ccccc4)[nH]c(-c4ccccc4)cn-3c2=O)o1 [Compound 42]
category: n
--
compound: O=c1c(Cc2c(F)c(F)c(F)c(F)c2F)nc2c(Cc3ccccc3)[nH]c(-c3ccccc3)cn1-2 [Compound 43]
category: n
--
compound: O=c1c(Cc2ccc(-c3ccccc3)cc2)nc2c(Cc3ccccc3)[nH]c(-c3ccccc3)cn1-2 [Compound 26]
category: n
--
compound: COc1cccc(Cc2nc3c(Cc4ccccc4)[nH]c(-c4ccccc4)cn-3c2=O)c1 [Compound 17]
category: n
